# TARGET_OR_TEST_SYSTEM: UniProtKB P47746
# Sequence (P47746 whole entry): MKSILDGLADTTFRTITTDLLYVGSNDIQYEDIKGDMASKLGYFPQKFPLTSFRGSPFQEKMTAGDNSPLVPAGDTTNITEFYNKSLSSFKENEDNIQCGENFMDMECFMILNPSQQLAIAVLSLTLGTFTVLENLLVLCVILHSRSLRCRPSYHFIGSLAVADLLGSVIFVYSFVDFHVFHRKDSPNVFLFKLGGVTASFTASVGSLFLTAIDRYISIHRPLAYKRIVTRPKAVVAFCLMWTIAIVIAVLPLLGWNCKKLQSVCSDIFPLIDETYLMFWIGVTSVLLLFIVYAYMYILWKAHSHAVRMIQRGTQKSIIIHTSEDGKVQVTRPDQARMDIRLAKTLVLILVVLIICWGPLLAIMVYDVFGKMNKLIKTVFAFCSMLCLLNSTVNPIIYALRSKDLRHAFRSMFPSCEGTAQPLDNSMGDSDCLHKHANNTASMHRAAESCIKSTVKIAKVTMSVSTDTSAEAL
# METHOD_NOTES: CB1 radioligand displacement assay in mouse brain membranes
# Assay type: binding
# Set-up: radioligand displacement assay in mouse brain membranes; from tissue; host or cells: mouse brain membranes
# EXPERIMENTAL_SETUP: Table 2; read-out: Ki CB1
RESULT_TYPE: Ki (nM)
Field format: number, assumed nM, no unit text.

# Ki of CC(C)(C)C(N)=NC(=NS(=O)(=O)c1ccc(I)cc1)N1CC(c2ccccc2)C(c2ccc(Cl)cc2)=N1 (stereo not shown) [Compound 89] = 4.1

Record summary for NC(=NC(=NS(=O)(=O)c1ccc(I)cc1)N1CC(c2ccccc2)C(c2ccc(Cl)cc2)=N1)c1ccc(F)cc1F (stereo not shown) [Compound 88] : reported Ki = 4.8

Item: CC(N)=NC(=NS(=O)(=O)c1ccc(F)cc1)N1CC(c2ccccc2)C(c2ccc(Cl)cc2)=N1 (stereo not shown) [Compound 27] | Ki: 60

Ki reported for this molecule NC(=NC(=NS(=O)(=O)c1ccc(Cl)cc1)N1CC(c2ccccc2)C(c2ccc(Cl)cc2)=N1)c1ccc(F)cc1 (stereo not shown) [Compound 10] : 7.9
